Target: T1, EsCas13d, nuclease-dead (Eubacterium siraeum, UniProt B0MS50, R295A;H300A;R849A;H854A)
T1 sequence: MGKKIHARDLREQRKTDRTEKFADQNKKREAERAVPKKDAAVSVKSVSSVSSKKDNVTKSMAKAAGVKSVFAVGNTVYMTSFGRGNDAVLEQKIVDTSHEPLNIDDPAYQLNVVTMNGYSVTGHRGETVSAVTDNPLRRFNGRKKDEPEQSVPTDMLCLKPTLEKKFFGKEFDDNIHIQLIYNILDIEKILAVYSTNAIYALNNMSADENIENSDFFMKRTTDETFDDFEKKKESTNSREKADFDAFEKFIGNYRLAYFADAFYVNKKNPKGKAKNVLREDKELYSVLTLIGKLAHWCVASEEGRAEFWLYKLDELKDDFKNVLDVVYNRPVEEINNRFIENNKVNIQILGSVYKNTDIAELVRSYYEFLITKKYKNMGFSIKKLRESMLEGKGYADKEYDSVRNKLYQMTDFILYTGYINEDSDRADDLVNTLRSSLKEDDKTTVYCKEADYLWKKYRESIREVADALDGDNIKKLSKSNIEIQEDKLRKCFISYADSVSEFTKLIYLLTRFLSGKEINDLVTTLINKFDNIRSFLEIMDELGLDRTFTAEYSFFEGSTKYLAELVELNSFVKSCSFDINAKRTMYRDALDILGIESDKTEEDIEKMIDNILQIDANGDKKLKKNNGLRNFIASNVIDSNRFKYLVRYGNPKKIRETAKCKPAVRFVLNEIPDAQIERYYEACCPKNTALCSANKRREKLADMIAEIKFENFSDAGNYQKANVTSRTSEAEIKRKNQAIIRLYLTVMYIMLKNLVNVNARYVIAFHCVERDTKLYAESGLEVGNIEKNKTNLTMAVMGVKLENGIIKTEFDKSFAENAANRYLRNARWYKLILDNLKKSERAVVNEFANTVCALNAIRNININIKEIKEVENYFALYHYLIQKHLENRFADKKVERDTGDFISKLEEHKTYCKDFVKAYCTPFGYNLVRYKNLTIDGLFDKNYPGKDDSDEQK
Experiment: crRNA (strand 1, pre-loaded); Mg2+; 40 mM Tris-HCl pH 7.5, 150 mM NaCl, 6 mM MgCl2, 1 mM DTT, 0.1% Tween-20, 0.2 mg/ml BSA; 25 C; 10 min per concentration, then washed
Details: tags: His6-TwinStrep-SUMO cleaved; N-terminal SNAP kept (SNAP-Surface 488); label: 3' end held by stalled T7 RNA polymerase
The binders listed here are annotated with their Kd.
Give just the number in nM; leave the unit off.

{"binder": "target 1 insA 3' of 19,insA 3' of 19 (mixed) RNA 1: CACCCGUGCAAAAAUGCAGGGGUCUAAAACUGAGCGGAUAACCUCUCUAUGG RNA 2: GGGAAUGGAUCCACAUCUACGAAUUCGUACCAUAAAGAGAGGUUAUCCGCUCACCGAGAUCGGAAGAGCACACGU", "data_value": 22.1}

Briefly, Kd measured for target 2 MT 5'PFS GAG 3'PFS CCA (mixed) RNA 1: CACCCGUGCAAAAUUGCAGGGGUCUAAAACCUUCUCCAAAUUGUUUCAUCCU RNA 2: GGGAAUGGAUCCACAUCUACGAAUUCGAGAGGAUGAAACAAUUUGGAGAAGCCAAGAUCGGAAGAGCACACGU : 17.2

Briefly, Kd measured for target 1 A1U,U11G (mixed) RNA 1: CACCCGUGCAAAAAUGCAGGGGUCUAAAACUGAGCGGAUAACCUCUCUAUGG RNA 2: GGGAAUGGAUCCACAUCUACGAAUUCGUACCAUAGAGAGGGUAUCCGCUCUCCGAGAUCGGAAGAGCACACGU : 20.8

Briefly, Kd measured for target 2 MT 5'PFS ACU 3'PFS AAU (mixed) RNA 1: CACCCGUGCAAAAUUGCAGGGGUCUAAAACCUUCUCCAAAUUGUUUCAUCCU RNA 2: GGGAAUGGAUCCACAUCUACGAAUUCACUAGGAUGAAACAAUUUGGAGAAGAAUAGAUCGGAAGAGCACACGU : 4.1
